Entries annotated with measured IC50
Biological target: androgen receptor (AR) (Homo sapiens, UniProt P10275, T878A)
Construct: LNCaP cells expressing ARR2PB-FireflyLuc and CMV-RenillaLuc; endogenous in cells; host or cells: LNCaP cells carrying ARR2PB-FireflyLuc and CMV-RenillaLuc reporters
Sequence (P10275 whole entry T878A): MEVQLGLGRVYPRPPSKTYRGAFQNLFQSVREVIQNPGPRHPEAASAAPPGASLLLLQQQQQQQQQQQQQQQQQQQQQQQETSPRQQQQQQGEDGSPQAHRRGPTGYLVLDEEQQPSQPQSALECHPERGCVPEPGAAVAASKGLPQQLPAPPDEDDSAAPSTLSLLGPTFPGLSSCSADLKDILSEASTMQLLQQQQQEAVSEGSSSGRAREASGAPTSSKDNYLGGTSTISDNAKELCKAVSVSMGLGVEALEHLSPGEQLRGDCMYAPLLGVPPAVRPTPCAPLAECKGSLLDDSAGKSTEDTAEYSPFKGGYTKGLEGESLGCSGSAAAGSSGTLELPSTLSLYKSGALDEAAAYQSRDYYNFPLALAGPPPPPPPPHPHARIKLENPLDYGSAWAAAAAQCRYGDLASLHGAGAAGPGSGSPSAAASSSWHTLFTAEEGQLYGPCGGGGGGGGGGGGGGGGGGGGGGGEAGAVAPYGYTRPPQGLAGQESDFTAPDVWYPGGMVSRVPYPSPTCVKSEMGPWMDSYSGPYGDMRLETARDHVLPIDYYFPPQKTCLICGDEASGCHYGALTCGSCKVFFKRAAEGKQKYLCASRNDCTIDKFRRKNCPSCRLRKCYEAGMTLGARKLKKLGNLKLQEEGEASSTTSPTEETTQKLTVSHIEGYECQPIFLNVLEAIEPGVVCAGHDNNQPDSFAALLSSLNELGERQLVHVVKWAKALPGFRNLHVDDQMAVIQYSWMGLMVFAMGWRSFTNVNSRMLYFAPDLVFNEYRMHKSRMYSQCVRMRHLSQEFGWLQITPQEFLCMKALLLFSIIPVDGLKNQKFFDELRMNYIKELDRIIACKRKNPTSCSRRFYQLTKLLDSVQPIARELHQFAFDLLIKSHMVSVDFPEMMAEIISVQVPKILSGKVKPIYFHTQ
Assay: AR reporter assay in LNCaP cells expressing ARR2PB-FireflyLuc and CMV-RenillaLuc, antagonist mode (% remaining activity, IC50)
Assay type: cell-based
Details: 48 h at 37° C., class symbols A-D, read-out: IC50
Reported Property: IC50

# Compound, System Tested, Endpoint Result
measured = [
    ("CN1C(=O)c2ccc(-c3c[nH]c4c(C#N)cccc34)nc2C1(C)CO (stereo not drawn)", "androgen receptor (AR) (Homo sapiens, UniProt P10275, T878A)", "1000 to 10000 nM"),
    ("Cc1nc(-c2c[nH]c3c(C#N)cccc23)ccc1NCCN(C)C", "androgen receptor (AR) (Homo sapiens, UniProt P10275, T878A)", "1000 to 10000 nM"),
    ("CCc1nc(-c2n[nH]c3cc(F)c(F)cc23)ccc1N", "androgen receptor (AR) (Homo sapiens, UniProt P10275, T878A)", "100 to 1000 nM"),
    ("FC(F)(F)c1ccc(-c2n[nH]c3ccccc23)nc1", "androgen receptor (AR) (Homo sapiens, UniProt P10275, T878A)", "1000 to 10000 nM"),
    ("O=C(CO)N1CCCc2nc(-c3n[nH]c4cc(F)c(F)cc34)ccc21", "androgen receptor (AR) (Homo sapiens, UniProt P10275, T878A)", "1000 to 10000 nM"),
    ("CC(=O)N1CCC(Oc2ncc(-c3c[nH]c4c(C#N)cccc34)nc2C)C1 (stereo not drawn)", "androgen receptor (AR) (Homo sapiens, UniProt P10275, T878A)", "100 to 1000 nM"),
    ("Cc1nc(-c2c(C)[nH]c3c(C#N)cccc23)ccc1N", "androgen receptor (AR) (Homo sapiens, UniProt P10275, T878A)", "> 10000 nM"),
    ("Fc1ccc(-c2c[nH]c3ccccc23)nc1", "androgen receptor (AR) (Homo sapiens, UniProt P10275, T878A)", "100 to 1000 nM"),
    ("Cc1nc(-c2coc3cc(F)ccc23)cnc1N", "androgen receptor (AR) (Homo sapiens, UniProt P10275, T878A)", "100 to 1000 nM"),
    ("Cc1nc(-c2c[nH]c3c(C#N)cccc23)ccc1OC1CCNC1=O (stereo not drawn)", "androgen receptor (AR) (Homo sapiens, UniProt P10275, T878A)", "1000 to 10000 nM"),
    ("CCNc1ccc(-c2c[nH]c3c(C#N)cccc23)nc1C", "androgen receptor (AR) (Homo sapiens, UniProt P10275, T878A)", "100 to 1000 nM"),
    ("N#Cc1cccc2c(-c3cnc(OC4CCNC4)c(C4CC4)n3)c[nH]c12 (stereo not drawn)", "androgen receptor (AR) (Homo sapiens, UniProt P10275, T878A)", "1000 to 10000 nM"),
    ("Cc1nc(-c2c[nH]c3c(C#N)cccc23)cnc1OC1(C)CCNC1 (stereo not drawn)", "androgen receptor (AR) (Homo sapiens, UniProt P10275, T878A)", "1000 to 10000 nM"),
    ("Cc1nc(-c2c[nH]c3c(C#N)cccc23)cnc1NCC(C)(C)O", "androgen receptor (AR) (Homo sapiens, UniProt P10275, T878A)", "100 to 1000 nM"),
    ("CC1(C)NC(=O)c2ccc(-c3c[nH]c4c(Cl)cccc34)nc21", "androgen receptor (AR) (Homo sapiens, UniProt P10275, T878A)", "100 to 1000 nM"),
    ("Cc1nc(-c2c[nH]c3c(C#N)cccc23)cnc1OC[C@H]1[C@@H]2CNC[C@@H]21", "androgen receptor (AR) (Homo sapiens, UniProt P10275, T878A)", "100 to 1000 nM"),
    ("CC1(C)CCNc2ccc(-c3n[nH]c4cc(F)c(F)cc34)nc21", "androgen receptor (AR) (Homo sapiens, UniProt P10275, T878A)", "100 to 1000 nM"),
    ("Cc1nc(-c2c[nH]c3c(C)cccc23)ccc1N", "androgen receptor (AR) (Homo sapiens, UniProt P10275, T878A)", "1000 to 10000 nM"),
    ("Cc1cc2c(-c3ccc4c(n3)CCCN4)n[nH]c2cc1F", "androgen receptor (AR) (Homo sapiens, UniProt P10275, T878A)", "100 to 1000 nM"),
    ("Cc1nc(-c2c[nH]c3c(C#N)cccc23)cnc1OC1CC(N)C1 (stereo not drawn)", "androgen receptor (AR) (Homo sapiens, UniProt P10275, T878A)", "100 to 1000 nM"),
    ("CN1CCOc2nc(-c3n[nH]c4ccccc34)ccc21", "androgen receptor (AR) (Homo sapiens, UniProt P10275, T878A)", "> 10000 nM"),
    ("CC(=O)NC1CCCc2nc(-c3n[nH]c4ccccc34)ccc21 (stereo not drawn)", "androgen receptor (AR) (Homo sapiens, UniProt P10275, T878A)", "> 10000 nM"),
    ("COCCN1C(=O)c2ccc(-c3c[nH]c4c(C#N)cccc34)nc2C1(C)C", "androgen receptor (AR) (Homo sapiens, UniProt P10275, T878A)", "> 10000 nM"),
    ("N#Cc1cccc2c(-c3ccccn3)c[nH]c12", "androgen receptor (AR) (Homo sapiens, UniProt P10275, T878A)", "100 to 1000 nM"),
]
